Recorded below: pIC50, system Telomerase reverse transcriptase (Homo sapiens).
For clarity, pIC50 is expressed as the negative log10 of concentration in mol/L.

1) CN(C)CCCNCc1ccc2nc3ccc4cc5cc(CNCCCN(C)C)ccc5nc4c3cc2c1 | 7.55

--- query ---
Request: Give reported pIC50 value for CSc1nc(Nc2ccc3nc(C)cc(N(C)C)c3c2)nc(Nc2ccc3nc(C)cc(N(C)C)c3c2)n1
Result: 7.39
